# systemTested: purified recombinant human GAC (GLS1) (Homo sapiens, UniProt O94925)
# Sequence (O94925 55-598 isoform O94925-3 limits assumed): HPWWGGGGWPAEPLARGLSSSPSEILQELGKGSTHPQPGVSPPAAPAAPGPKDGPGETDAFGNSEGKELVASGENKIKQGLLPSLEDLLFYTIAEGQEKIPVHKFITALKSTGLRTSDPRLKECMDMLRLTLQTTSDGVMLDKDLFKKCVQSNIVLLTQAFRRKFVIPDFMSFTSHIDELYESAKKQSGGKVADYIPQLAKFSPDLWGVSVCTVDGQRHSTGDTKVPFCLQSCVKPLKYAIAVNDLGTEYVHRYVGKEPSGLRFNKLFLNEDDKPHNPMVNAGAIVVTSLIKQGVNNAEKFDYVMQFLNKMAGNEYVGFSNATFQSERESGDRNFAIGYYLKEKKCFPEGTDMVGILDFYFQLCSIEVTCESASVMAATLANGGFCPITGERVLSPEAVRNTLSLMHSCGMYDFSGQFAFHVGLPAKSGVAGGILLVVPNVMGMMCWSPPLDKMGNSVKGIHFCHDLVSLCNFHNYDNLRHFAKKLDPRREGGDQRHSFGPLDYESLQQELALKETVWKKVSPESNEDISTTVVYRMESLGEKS
# assayComment: GLS1 Enzymatic Activity Assay (dual-coupled enzymatic assay)
pIC50: −log10 of the molar value.
valueType: pIC50

INPUT: Entry COCCNC(=O)c1nnc(CCCCc2cc3cc(Cc4ccccc4)[nH]c3nn2)s1 has what pIC50?
OUTPUT: 6.30 to 7.00

INPUT: Please look up its pIC50: O=C(NCc1cc(C(F)(F)F)ccn1)c1cn(CCCCc2cc3c(-c4ccoc4)c(C4CC4)[nH]c3nn2)nn1
OUTPUT: > 7.00

INPUT: Look up pIC50 for this compound: O=C(Cc1cccc(OC(F)(F)F)c1)Nc1nnc(CCCCc2cc3cc(Cc4ccccc4)[nH]c3nn2)s1
OUTPUT: > 7.00

INPUT: Entry Cc1ccc(CNC(=O)c2cn(CCCCc3cc4cc(-c5ccccc5Cl)[nH]c4nn3)nn2)cn1 : reported pIC50 = ?
OUTPUT: > 7.00

INPUT: Any idea what its pIC50 is? The compound is O=C(NCc1ccc(C(F)(F)F)nc1)c1cn(CCCCc2cc3c(C4CC4)c(C4CC4)[nH]c3nn2)nn1
OUTPUT: > 7.00

INPUT: Consider the compound shown here: O=C(NCc1ccccn1)c1cn(CC(F)CCc2cc3cc(-c4ccccc4F)[nH]c3nn2)nn1 (centres unmarked) What is its recorded pIC50?
OUTPUT: > 7.00

INPUT: Would you kindly share the measured pIC50 for O=C(NCc1cccc(C(F)(F)F)n1)c1cn(CCCCc2cc3c(-c4ccoc4)c(C4CC4)[nH]c3nn2)nn1 ?
OUTPUT: > 7.00

INPUT: Sample Cc1c(C2CC2)[nH]c2nnc(CCCCn3cc(C(=O)NCc4ccccn4)nn3)cc12 — what was its pIC50?
OUTPUT: 6.30 to 7.00

INPUT: Could you share which pIC50 value was measured for O=C(NCc1ccccn1)c1cn(CCCCc2cc3c4c([nH]c3nn2)CCC4)nn1 ?
OUTPUT: 5.30 to 6.30

INPUT: Which measured pIC50 value corresponds to O=C(NCc1ccncc1)c1nnc(CCCCc2cc3cc(Cc4ccccc4)[nH]c3nn2)s1 ?
OUTPUT: 6.30 to 7.00

INPUT: What value of measured pIC50 is listed for O=C(NCc1cc(OC(F)(F)F)ccc1F)c1cn(CCCCc2cc3c(-c4ccncc4)c(C4CC4)[nH]c3nn2)nn1 ?
OUTPUT: > 7.00

INPUT: Suppose we examine the compound Cc1ccc(CNC(=O)c2cn(CCCCc3cc4c(-c5ccc(OC(F)(F)F)cc5)c(C5CC5)[nH]c4nn3)nn2)cn1 ; what pIC50 value has been reported?
OUTPUT: > 7.00

INPUT: Entry O=C(NCc1cccc(OC(F)(F)F)c1)c1cn(CCCCc2cc3cc(-c4ccccc4F)[nH]c3nn2)nn1 : reported pIC50 = ?
OUTPUT: > 7.00

INPUT: Please report the recorded pIC50 for O=C(Nc1nnc(CCCCc2cc3cc(C4CC4)[nH]c3nn2)s1)[C@@H](O)c1ccccc1 .
OUTPUT: > 7.00

INPUT: Give its pIC50 value. Item: Cc1ccc(CNC(=O)c2cn(CCCCc3cc4cc(C5CCNCC5)[nH]c4nn3)nn2)cn1
OUTPUT: 5.30 to 6.30

INPUT: pIC50 for O=C(NCc1cc(C(F)(F)F)ccn1)c1cn(CCCCc2cc3c(-c4ccc(F)cc4F)c(C4CC4)[nH]c3nn2)nn1 ?
OUTPUT: > 7.00

INPUT: I would be grateful if you could share the reported pIC50 for Cc1ccc(CNC(=O)c2cn(CCCCc3cc4cc(C5CNC5)[nH]c4nn3)nn2)cn1 .
OUTPUT: 6.30 to 7.00

INPUT: Item CC(C)c1cc2cc(CCCCn3cc(C(=O)NCc4ccccn4)nn3)nnc2[nH]1 has what recorded pIC50?
OUTPUT: 6.30 to 7.00

INPUT: # lookup: pIC50 of O=C(NCc1cncc(C(F)(F)F)c1)c1cn(CCCCc2cc3c(C4CC4)c(C4CC4)[nH]c3nn2)nn1
OUTPUT: > 7.00

INPUT: Reported pIC50 for Cn1cnc(CNC(=O)c2cn(CCCCc3cc4cc(C5CC5)[nH]c4nn3)nn2)c1 : what is it?
OUTPUT: 6.30 to 7.00

INPUT: Which pIC50 value is on record for O=C(NCc1cc(C2CC2)ccn1)c1cn(CC(F)CCc2cc3cc(-c4ccccc4F)[nH]c3nn2)nn1 (centres unmarked) ?
OUTPUT: > 7.00

INPUT: So what does the record say about pIC50 for O=C(NCc1cccc(OC(F)(F)F)c1)c1cn(CCCCc2cc3c(C4CC4)c(-c4ccccn4)[nH]c3nn2)nn1 [Example 177, 2,2,2-trifluoroacetate] ?
OUTPUT: > 7.00

INPUT: Can you share its pIC50? I mean this compound: CC(C)(C)OC(=O)N1CC(c2cc3cc(CCCCn4cc(C(=O)NCc5ccc(C(F)(F)F)cn5)nn4)nnc3[nH]2)C1
OUTPUT: > 7.00

INPUT: Report pIC50 for CC(C)(O)c1ccc(CNC(=O)c2cn(CCCCc3cc4cc(C5CC5)[nH]c4nn3)nn2)cn1 please.
OUTPUT: > 7.00

INPUT: Look at this compound and give its reported pIC50. COc1ncc(-c2c(C3CC3)[nH]c3nnc(CCCCn4cc(C(=O)NCc5cccc(OC(F)(F)F)c5)nn4)cc23)c(OC)n1
OUTPUT: > 7.00

INPUT: Consider the compound CC(C)(O)c1ccnc(CNC(=O)c2cn(CCCCc3cc4cc(C5CC5)[nH]c4nn3)nn2)c1 [Example 17, 2,2,2-trifluoroacetate] and give its measured pIC50.
OUTPUT: 6.30 to 7.00

INPUT: Entry CC(C)(O)c1ccc(CNC(=O)c2cn(CCCCc3cc4c(-c5ccc(C(F)(F)F)cc5)c(C5CC5)[nH]c4nn3)nn2)cn1 has what pIC50?
OUTPUT: > 7.00

INPUT: Reported pIC50, compound O=C(NCC1CCOC1)c1nnc(CCCCc2cc3cc(Cc4ccccc4)[nH]c3nn2)s1 (centres unmarked) : ____
OUTPUT: 6.30 to 7.00

INPUT: Any idea what its pIC50 is? The compound is O=C(NCc1cc(OC(F)(F)F)ccc1F)c1cn(CCCCc2cc3cc(C4CN(C(=O)CC(F)(F)F)C4)[nH]c3nn2)nn1
OUTPUT: > 7.00
